Reference for the values: patent US9518052B2

Reported log10(IC50) values, JAK3 (Homo sapiens (Human)).
Kindly note that the scale is log10 and the underlying IC50 is in nM.

Problem: Specify log10(IC50) for CNC(=O)c1n[nH]c2nc(-c3cc(F)c(O)cc3CC(F)(F)F)nc(NCc3cc(F)ccc3N(C)S(C)(=O)=O)c12 [Example 104] and stop.
Solution: 2.05

Problem: Determine from records and report log10(IC50) for CCN(c1ccc(C)cc1CNc1nc(-c2cc(F)c(O)cc2CC(F)(F)F)cc2[nH]nc(C(N)=O)c12)S(C)(=O)=O [Example 91]
Solution: 2.66

Problem: Determine from records and report log10(IC50) for CNC(=O)c1n[nH]c2cc(-c3cc(F)c(O)cc3CC(F)(F)F)nc(NCc3nccnc3N(C)S(C)(=O)=O)c12 [Example 51]
Solution: 1.83

Problem: Look up and state reported log10(IC50) for CCc1cc(O)c(F)cc1-c1cc2[nH]nc(C(=O)NC)c2c(N[C@H](C)c2ccccc2N(C)S(C)(=O)=O)n1 [Example 38]
Solution: 2.09

Problem: State its log10(IC50) for this compound: CN(c1ccccc1CNc1nc(-c2cc(F)c(O)cc2CC(F)(F)F)cc2[nH]ncc12)S(C)(=O)=O [Example 148]
Solution: 1.36

Problem: Output measured log10(IC50) for this item: CCN(c1ncccc1CNc1nc(-c2cc(F)c(O)cc2CC(F)(F)F)cc2[nH]nc(C(N)=O)c12)S(C)(=O)=O [Example 52]
Solution: 1.67

Problem: Tell me its log10(IC50) given CNC(=O)c1n[nH]c2cc(-c3cc(F)c(O)cc3CC(F)(F)F)nc(NCC3CCCC3)c12 [Example 17] as the entry.
Solution: 2.41

###

SYSTEM TESTED: UniProtKB P23458
Structures can show the parent of a compound that is named as a salt.
# pIC50 per entry
On this scale, pIC50 is minus log10 of a concentration expressed in M (mol/L).

Use these answered entries as a reference point.
molecule=CCN(c1ccc(O)cc1CNc1nc(-c2cc(F)c(O)cc2CC(F)(F)F)cc2[nH]nc(C(N)=O)c12)S(=O)(=O)c1ccccc1 test_value=7.26
molecule="CCc1cc(O)c(F)cc1-c1cc2[nH]ncc2c(NCc2ccccc2N(CC)S(=O)(=O)CC)n1 [Example 136, hydrochloride]" test_value=9.10
molecule=CCc1cc(O)c(F)cc1-c1cc2[nH]nc(C(N)=O)c2c(NCc2ccccc2N(C)S(=O)(=O)c2ccccc2)n1 test_value=8.34
molecule=CCN(c1ncccc1CNc1nc(-c2cc(F)c(O)cc2CC(F)(F)F)cc2[nH]nc(C(N)=O)c12)S(C)(=O)=O test_value=8.54
molecule=CN(c1ccccc1CNCc1nc(-c2cc(F)c(O)cc2CC(F)(F)F)cc2[nH]ncc12)S(C)(=O)=O test_value=8.57
molecule=CCc1cc(O)c(F)cc1-c1cc2[nH]nc(-c3ncc[nH]3)c2c(NCc2ccccc2N(C)S(C)(=O)=O)n1 test_value=8.47

Now take the following molecule into account.
Problem: # assay system UniProtKB P23458: give pIC50 of CCc1cc(O)c(F)cc1-c1cc2[nH]nc(C(=O)NC)c2c(NCc2cc(O)ccc2N(C)S(C)(=O)=O)n1
Solution: 8.89

###

What follows is a collection of IC50 values obtained with JAK2 (Homo sapiens (Human)).
Sequence (O60674 whole entry, species assumed): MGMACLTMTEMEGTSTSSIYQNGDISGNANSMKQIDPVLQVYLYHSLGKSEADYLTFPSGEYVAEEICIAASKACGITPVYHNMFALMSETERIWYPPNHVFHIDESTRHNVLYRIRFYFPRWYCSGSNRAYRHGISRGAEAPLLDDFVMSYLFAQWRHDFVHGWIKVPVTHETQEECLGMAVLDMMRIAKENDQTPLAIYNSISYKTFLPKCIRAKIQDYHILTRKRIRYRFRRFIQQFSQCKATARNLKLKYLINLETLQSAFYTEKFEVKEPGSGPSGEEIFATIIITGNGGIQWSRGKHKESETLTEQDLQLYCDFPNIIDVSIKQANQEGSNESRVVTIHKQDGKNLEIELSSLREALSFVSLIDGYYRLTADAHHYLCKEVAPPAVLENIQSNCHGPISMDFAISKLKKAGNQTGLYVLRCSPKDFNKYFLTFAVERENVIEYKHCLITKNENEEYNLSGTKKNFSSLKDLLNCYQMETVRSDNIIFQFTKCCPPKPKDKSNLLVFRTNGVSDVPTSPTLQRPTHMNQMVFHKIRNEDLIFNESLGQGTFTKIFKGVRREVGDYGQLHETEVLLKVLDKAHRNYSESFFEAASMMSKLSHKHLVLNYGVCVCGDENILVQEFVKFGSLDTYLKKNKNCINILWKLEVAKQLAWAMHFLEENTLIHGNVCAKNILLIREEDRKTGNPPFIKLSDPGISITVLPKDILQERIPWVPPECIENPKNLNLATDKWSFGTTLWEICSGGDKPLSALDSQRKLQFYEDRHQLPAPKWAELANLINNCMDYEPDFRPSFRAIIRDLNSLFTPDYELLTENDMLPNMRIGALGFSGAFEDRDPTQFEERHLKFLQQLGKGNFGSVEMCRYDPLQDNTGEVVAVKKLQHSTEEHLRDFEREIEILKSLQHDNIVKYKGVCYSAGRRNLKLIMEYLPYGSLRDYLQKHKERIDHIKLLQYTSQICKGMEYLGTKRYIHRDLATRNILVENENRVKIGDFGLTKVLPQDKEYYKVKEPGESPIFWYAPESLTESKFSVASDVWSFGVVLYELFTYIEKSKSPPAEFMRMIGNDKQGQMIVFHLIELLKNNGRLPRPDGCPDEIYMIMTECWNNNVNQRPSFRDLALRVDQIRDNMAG
Structures can show the parent of a compound that is named as a salt.
Report as a plain number; the unit nM is understood.

Here is how some molecules turned out for IC50.
molecule=CN(c1ccccc1CNc1nc(-c2cc(F)c(O)cc2CC(F)(F)F)cc2[nH]nc(C(N)=O)c12)S(C)(=O)=O system_tested="JAK2 (Homo sapiens (Human))" test_value=15.1
molecule="CCc1cc(O)ccc1-c1cc2[nH]ncc2c(N2CCc3c(cccc3NS(C)(=O)=O)C2)n1 [Example 123, formate]" system_tested="JAK2 (Homo sapiens (Human))" test_value=4.5
molecule=CN(c1ccccc1CNCc1nc(-c2cc(F)c(O)cc2CC(F)(F)F)cc2[nH]ncc12)S(C)(=O)=O system_tested="JAK2 (Homo sapiens (Human))" test_value=14.5
molecule=CNC(=O)c1n[nH]c2cc(-c3cc(F)c(O)cc3CC(F)(F)F)nc(NCc3ccccc3N(C)S(=O)(=O)c3cn(C)cn3)c12 system_tested="JAK2 (Homo sapiens (Human))" test_value=23.5
molecule=CN(c1ccc(O)cc1CNc1nc(-c2cc(F)c(O)cc2CC(F)(F)F)cc2[nH]nc(C(N)=O)c12)S(C)(=O)=O system_tested="JAK2 (Homo sapiens (Human))" test_value=13.5

Could you now look at the following molecule, please?
Problem: State IC50 (JAK2 (Homo sapiens (Human))) of CCc1cc(O)ccc1-c1cc2[nH]ncc2c(N2CC(Oc3cc(C#N)ccc3Cl)C2)n1 [Example 120, formate] .
Solution: 128

###

Where a name gives a salt, the structure may show the parent alone.
Target or system JAK3 (Homo sapiens (Human), UniProt P52333): recorded pIC50 listed per item.
Conceptually, pIC50 converts a concentration in mol/L into minus its log10.

A selection of reference data follows.
molecule="CNC(=O)c1n[nH]c2cc(-c3cc(F)c(O)cc3CC(F)(F)F)nc(NCc3cnccc3N(C)S(C)(=O)=O)c12 [Example 48]" test_value=6.83
molecule="Cc1ccc(N(C)S(C)(=O)=O)c(CNc2nc(-c3cc(F)c(O)cc3CC(F)(F)F)cc3[nH]ncc23)c1 [Example 150]" test_value=7.11
molecule="CCc1cc(O)c(F)cc1-c1cc2[nH]ncc2c(NCc2cc(Cl)ccc2N(C)S(C)(=O)=O)n1 [Example 133, hydrochloride]" test_value=7.52

Would you kindly look at the next entry?
Problem: Please respond with reported pIC50 (system JAK3 (Homo sapiens (Human), UniProt P52333)) for CCc1cc(O)c(F)cc1-c1cc2[nH]ncc2c(NCc2ccccc2N(CC)S(=O)(=O)CC)n1 [Example 136, hydrochloride] .
Solution: 7.65

###

SYSTEM TESTED: JAK3 (Homo sapiens (Human), UniProt P52333)
Sequence (P52333 whole entry, species assumed): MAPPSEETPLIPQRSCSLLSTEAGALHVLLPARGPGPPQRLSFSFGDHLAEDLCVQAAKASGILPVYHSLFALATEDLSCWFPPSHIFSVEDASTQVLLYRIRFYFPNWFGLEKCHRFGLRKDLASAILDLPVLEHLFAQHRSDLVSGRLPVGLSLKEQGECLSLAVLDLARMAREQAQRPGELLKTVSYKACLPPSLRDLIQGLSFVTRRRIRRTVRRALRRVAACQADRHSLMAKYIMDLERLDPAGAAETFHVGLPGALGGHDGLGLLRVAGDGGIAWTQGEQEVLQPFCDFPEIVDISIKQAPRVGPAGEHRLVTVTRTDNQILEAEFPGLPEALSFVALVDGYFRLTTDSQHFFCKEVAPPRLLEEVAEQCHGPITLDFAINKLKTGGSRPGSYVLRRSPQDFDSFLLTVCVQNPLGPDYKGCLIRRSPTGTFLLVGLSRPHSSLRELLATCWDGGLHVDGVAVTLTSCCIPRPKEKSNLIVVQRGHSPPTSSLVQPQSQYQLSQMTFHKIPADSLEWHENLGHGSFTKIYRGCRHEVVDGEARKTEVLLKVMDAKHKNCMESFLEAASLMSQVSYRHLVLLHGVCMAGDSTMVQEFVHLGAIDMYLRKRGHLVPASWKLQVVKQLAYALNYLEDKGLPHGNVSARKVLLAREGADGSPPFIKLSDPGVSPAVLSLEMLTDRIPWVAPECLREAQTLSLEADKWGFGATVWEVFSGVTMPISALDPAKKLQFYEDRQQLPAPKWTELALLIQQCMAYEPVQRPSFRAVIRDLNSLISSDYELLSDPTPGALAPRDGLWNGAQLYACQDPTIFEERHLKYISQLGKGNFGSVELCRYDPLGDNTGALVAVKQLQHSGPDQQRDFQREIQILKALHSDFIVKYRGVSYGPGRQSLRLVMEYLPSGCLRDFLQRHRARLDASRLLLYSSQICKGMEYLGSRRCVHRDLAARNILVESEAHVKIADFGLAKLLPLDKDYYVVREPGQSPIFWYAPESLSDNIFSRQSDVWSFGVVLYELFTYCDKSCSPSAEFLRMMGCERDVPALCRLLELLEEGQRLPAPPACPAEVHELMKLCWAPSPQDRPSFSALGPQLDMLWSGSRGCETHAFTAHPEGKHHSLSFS
Response field label: string, one of t (IC50 strictly below 80 nM) or f.

Problem: Could you please tell me whether IC50 recorded for CCN(c1ccccc1CNc1nc(-c2cc(F)c(O)cc2CC(F)(F)F)cc2[nH]nc(C(N)=O)c12)S(C)(=O)=O is less than 80 nM?
Solution: t

Problem: Is IC50 strictly under 80 nM for the entry CN(c1ccccc1CNc1nc(-c2cc(F)c(O)cc2CC(F)(F)F)cc2[nH]nc(C(N)=O)c12)S(=O)(=O)c1cccnc1 ?
Solution: f

Problem: hey, is IC50 for CCc1cc(O)c(F)cc1-c1cc2[nH]nc(-c3ncc[nH]3)c2c(NCc2ccccc2N(C)S(C)(=O)=O)n1 lower than 80 nM or not?
Solution: t

Problem: I wonder whether CCc1cc(O)c(F)cc1-c1cc2[nH]nc(-c3nc(C)c(C)[nH]3)c2c(NCc2ccccc2N(C)S(C)(=O)=O)n1 has IC50 below 80 nM. Can you tell?
Solution: f

Problem: Below 80 nM on IC50? Entry CN(c1ccc(O)cc1CNc1nc(-c2cc(F)c(O)cc2CC(F)(F)F)cc2[nH]nc(C(N)=O)c12)S(C)(=O)=O
Solution: t

###

Lab note: IC50 readings collected with JAK1 (Homo sapiens (Human)) for the following compounds.
Sequence (P23458 whole entry, species assumed): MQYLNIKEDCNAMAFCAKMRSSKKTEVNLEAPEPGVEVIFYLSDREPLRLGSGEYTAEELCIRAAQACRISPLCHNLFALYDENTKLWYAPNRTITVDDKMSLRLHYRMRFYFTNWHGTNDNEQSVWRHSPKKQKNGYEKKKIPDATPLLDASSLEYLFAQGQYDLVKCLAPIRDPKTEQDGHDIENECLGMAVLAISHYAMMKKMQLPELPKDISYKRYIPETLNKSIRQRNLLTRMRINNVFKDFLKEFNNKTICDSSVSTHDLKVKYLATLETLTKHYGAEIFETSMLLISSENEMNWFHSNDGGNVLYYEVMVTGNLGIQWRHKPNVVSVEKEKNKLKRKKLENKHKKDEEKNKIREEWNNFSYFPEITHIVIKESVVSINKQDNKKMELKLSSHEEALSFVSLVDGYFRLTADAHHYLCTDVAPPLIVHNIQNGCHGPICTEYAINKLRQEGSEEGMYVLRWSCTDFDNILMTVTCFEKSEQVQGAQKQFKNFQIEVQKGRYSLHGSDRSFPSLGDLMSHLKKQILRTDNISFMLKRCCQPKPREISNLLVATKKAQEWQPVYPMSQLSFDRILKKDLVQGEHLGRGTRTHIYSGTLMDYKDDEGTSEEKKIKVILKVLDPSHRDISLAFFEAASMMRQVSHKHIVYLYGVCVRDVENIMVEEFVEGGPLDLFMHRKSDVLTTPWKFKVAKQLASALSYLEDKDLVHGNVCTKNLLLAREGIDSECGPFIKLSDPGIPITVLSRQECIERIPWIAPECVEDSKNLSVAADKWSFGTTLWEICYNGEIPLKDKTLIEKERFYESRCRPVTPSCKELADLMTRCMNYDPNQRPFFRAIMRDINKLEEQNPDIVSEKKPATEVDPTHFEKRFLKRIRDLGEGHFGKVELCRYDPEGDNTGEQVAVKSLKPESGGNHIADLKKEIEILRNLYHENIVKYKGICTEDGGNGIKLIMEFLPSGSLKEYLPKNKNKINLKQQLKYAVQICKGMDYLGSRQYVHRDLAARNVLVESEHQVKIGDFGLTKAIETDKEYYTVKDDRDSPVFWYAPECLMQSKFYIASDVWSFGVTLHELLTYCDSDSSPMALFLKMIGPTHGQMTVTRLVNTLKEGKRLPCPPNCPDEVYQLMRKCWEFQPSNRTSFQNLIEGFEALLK
Express it in nM; write the number only.

compound="CCc1cc(O)c(F)cc1-c1cc2[nH]ncc2c(N(C)Cc2cc(C)ccc2N(CC)S(C)(=O)=O)n1 [Example 142]" uom=nM test_value=3.4
compound="CNC(=O)c1n[nH]c2cc(-c3cc(F)c(O)cc3CC(F)(F)F)nc(NCc3cc(Cl)ccc3N(C)S(C)(=O)=O)c12 [Example 15]" uom=nM test_value=13.6
compound="CNC(=O)c1n[nH]c2nc(-c3cc(F)c(O)cc3CC(F)(F)F)nc(NCc3ccccc3N(C)S(=O)(=O)NC)c12 [Example 110]" uom=nM test_value=5.4

Problem: Give JAK1 (Homo sapiens (Human)) IC50 for the following compound: CN(c1ccccc1CNc1nc(-c2cc(F)c(O)cc2CC(F)(F)F)cc2[nH]nc(C(N)=O)c12)S(=O)(=O)CCCN1CCOCC1 [Example 66]
Solution: 3.5

Problem: # lookup: JAK1 (Homo sapiens (Human)) IC50, key = CNC(=O)c1n[nH]c2cc(-c3cc(F)c(O)cc3CC(F)(F)F)nc(NCc3ccccc3N(C)S(=O)(=O)N(C)C)c12 [Example 57]
Solution: 21.1

###

Each entry below carries its measured IC50, system: JAK3 (Homo sapiens (Human)).
Respond numerically; units are nM and should not be typed.

smiles_entry=CNC(=O)c1n[nH]c2cc(-c3cc(F)c(O)cc3CC(F)(F)F)nc(NCc3ccccc3N(C)S(=O)(=O)c3cn[nH]c3)c12 measure_name=IC50 test_value=236
smiles_entry=CCN(c1ccccc1CNc1nc(-c2cc(F)c(O)cc2CC(F)(F)F)cc2[nH]nc(C(=O)NC)c12)S(=O)(=O)CC measure_name=IC50 test_value=177

# next compound below
Problem: Report IC50 from JAK3 (Homo sapiens (Human)) testing of CNC(=O)c1n[nH]c2cc(-c3cc(F)c(O)cc3CC(F)(F)F)nc(NCc3ccccc3N(C)S(=O)(=O)c3cn(C)cn3)c12
Solution: 112
